assay: chemical genetic growth profiling, strain panel (AID 1159580);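 note: tested at 20 µM; growth read once vehicle control cultures reached saturation at 30 °C; 1 = growth at the plate median or of vehicle wells; lower values mean less growth of the strain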; conditions: S. cerevisiae deletion strains, growth OD, locus YML120C, strain ndi1, hits give low values
Among all 5,500 compounds or so, about 2,000 (36%) were called active. Roughly 18% stayed inconclusive and do not appear here. The list shows a part of the results.
endpoint_name: normalized growth

compound: CC(=O)O[C@H]1CC[C@@]2(C)C(C[C@@H](OC(C)=O)[C@@]3(C)C4=CC(=O)O[C@@H](c5ccoc5)[C@]4(C)CCC23)C1(C)C (stereo partly specified)
readout_number: 1.02
//
compound: CC(=O)c1cc(CC=C(C)C)c(O)c(CC=C(C)C)c1
readout_number: 0.997
//
compound: CC(=O)c1ccc(O)c(CC=C(C)C)c1
readout_number: 0.966
//
compound: CC(=O)Oc1ccc(C(c2ccc(OC(C)=O)cc2)c2ccccn2)cc1
readout_number: 1
//
compound: O=C(NCO)c1cccnc1
readout_number: 1.01
//
compound: CNCCCC12CCC(c3ccccc31)c1ccccc12
readout_number: 0.976
//
compound: CC(=O)Oc1ccc(O)cc1
readout_number: 1.02
//
compound: N=C(N)N
readout_number: 1.02
//
compound: Cc1scc2c1N(C(=O)CN1CCN(C)CC1)c1ccccc1NC2=O
readout_number: 0.964
//
compound: O=C(O)C1=CCCNC1
readout_number: 1.01
//
compound: CC(N=C(NC#N)Nc1ccncc1)C(C)(C)C (stereo unspecified)
readout_number: 0.964
//
compound: NC(=O)c1cccnc1
readout_number: 0.982
//
compound: O=C(O)c1ccccc1
readout_number: 0.948
//
compound: OC[C@H]1O[C@@H](O[C@H]2[C@H](O)[C@@H](O)[C@@H](O)O[C@@H]2CO)[C@H](O)[C@@H](O)[C@@H]1O
readout_number: 1.01
//
compound: O=C(O)c1cccnc1
readout_number: 0.993
//
compound: Cc1cc(=O)oc2cc(O)c(O)cc12
readout_number: 1
//
compound: COc1ccc2cc(CCC(C)=O)ccc2c1
readout_number: 0.985
//
compound: N[C@@H](CCC(=O)N[C@@H](CS)C(=O)NCC(=O)O)C(=O)O
readout_number: 0.981
//
compound: COc1ccc([C@@H]2CC(=O)c3c(O)cc(O[C@@H]4O[C@H](CO[C@H]5O[C@@H](C)[C@H](O)[C@@H](O)[C@H]5O)[C@@H](O)[C@H](O)[C@H]4O)cc3O2)cc1O
readout_number: 1.01
//
compound: CC(=O)O[C@H]1CCC2(C)C3=C(CCC2C1(C)C)[C@]1(C)CCC(C(C)CCC=C(C)C)[C@@]1(C)CC3 (stereo partly specified)
readout_number: 1.01
//
compound: CC(=O)O[C@@H]1CC2C(C)(C)C(=O)C=C[C@]2(C)C2CC[C@]3(C)C(=CC(=O)O[C@H]3c3ccoc3)[C@@]21C (stereo partly specified)
readout_number: 0.993

====

experiment: chemical genetic growth profiling, strain panel (AID 1159580); conditions: S. cerevisiae deletion strains, growth OD, strain wtn01, hits give low values
The whole screen tested about 5,500 compounds, of which about 2,000 (36%) were called active. Roughly 18% stayed inconclusive and do not appear here. The list shows a part of the results.
Reported normalized growth values for the following compounds.
endpoint_name: normalized growth

compound: NCCCCCCNS(=O)(=O)c1cccc2c(Cl)cccc12
readout_number: 0.981
//
compound: CCCOc1ccc2nc(NC(=O)OC)[nH]c2c1
readout_number: 0.967
//
compound: CC(=O)O[C@@H]1C=C[C@@]2(C)C(C[C@@H](OC(C)=O)[C@@]3(C)C4=CC(=O)O[C@@H](c5ccoc5)[C@]4(C)CCC23)C1(C)C (some centres undefined)
readout_number: 0.0601
//
compound: CC1(C)CC2C1CC[C@]1(CBr)CCC3C(CC(=O)O)C(=O)O[C@@]32C1 (some centres undefined)
readout_number: 0.984
//
compound: CC(=O)O[C@@H]1CC[C@@]2(C)C(C[C@@H](OC(C)=O)[C@@]3(C)C4=CC(=O)O[C@@H](c5ccoc5)[C@]4(C)CCC23)C1(C)C (some centres undefined)
readout_number: 0.986
//
compound: NC1=NCCN1CC(=O)O
readout_number: 0.995
//
compound: CCOC(=O)[C@H](CCc1ccccc1)N[C@@H](C)C(=O)N1CCC[C@H]1C(=O)O
readout_number: 1.01
//
compound: CCCc1cc(=O)[nH]c(=S)[nH]1
readout_number: 0.997
//
compound: CCC(C)C(=O)OC1[C@@H]2CC3=C4CC(=O)O[C@@H](c5ccoc5)[C@]4(C)CCC3[C@@](C)(C2=O)[C@@H](CC(=O)OC)C1(C)C (some centres undefined)
readout_number: 0.993

====

assay: chemical genetic growth profiling, strain panel (AID 1159580);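 note: tested at 20 µM; growth read once vehicle control cultures reached saturation at 30 °C; 1 = growth at the plate median or of vehicle wells; lower values mean less growth of the strain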; conditions: S. cerevisiae deletion strains, growth OD, locus YPL256C, strain CLN2, hits give low values
Out of some 5,500 compounds screened, about 2,000 (36%) were called active. Not shown: some 18% with an inconclusive outcome. The list shows a part of the results.
API: label(entry) gives condition met if the entry's normalized growth is strictly smaller than 1; on equality or larger values it gives condition not met.

molecule: COC(=O)[C@H](Cc1ccccc1)NC(=O)/C(=C1\OC(=O)C(c2ccccc2)=C1O)c1ccccc1
cat: condition not met

molecule: CC(C)(C)c1cc(C(=O)Nc2ccc3c(c2)OCO3)n(Cc2ccc(F)cc2)n1
cat: condition met

molecule: O=[N+]([O-])c1cccc(C2CC(c3ccccc3)=Nc3ccccc3S2)c1 (stereo not given)
cat: condition met

molecule: Oc1cccc(O)c1
cat: condition not met

molecule: CC12CCC3C(CC3(C)C)C(C)(CCC1=O)O2 (stereo not given)
cat: condition not met

molecule: CC1(C)CC2C1CC[C@]1(C)CCC3C(C(=O)O)CC(=O)O[C@@]32C1 (stereo not given in full)
cat: condition met

molecule: CCOC(=O)/C(C#N)=C(\Nc1ccc(C(=O)OCC)cc1)SC
cat: condition met

molecule: CSc1n[nH]c(-c2cc(C(C)(C)C)oc2C)c1C#N
cat: condition met

molecule: O=C(Nc1cccc(Cl)c1)O/N=C1\CCCc2occc21
cat: condition met

molecule: O=C(O)C1=CCCNC1
cat: condition not met

molecule: CCCSc1ccc2nc(NC(=O)OC)[nH]c2c1
cat: condition met

molecule: NC1=NCCN1CC(=O)O
cat: condition met

molecule: O=C(O)c1ccc(S(=O)(=O)N(Cl)Cl)cc1
cat: condition met

molecule: Clc1ccc(CN2CCN(c3cccc4[nH]ccc34)CC2)cc1Cl
cat: condition not met

molecule: COC(=O)/C(=C1\OC(=O)C(c2ccccc2)=C1O)c1ccccc1
cat: condition met

====

assay: chemical genetic growth profiling, strain panel (AID 1159580);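 note: tested at 20 µM; growth read once vehicle control cultures reached saturation at 30 °C; 1 = growth at the plate median or of vehicle wells; lower values mean less growth of the strain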; details: S. cerevisiae deletion strains, growth OD, locus YML032C, strain rad52, hits give low values
Out of some 5,500 compounds screened, about 2,000 (36%) were called active. About 18% were inconclusive and are not listed. The list shows a part of the results.
# normalized growth annotations

compound: CC(=O)O[C@H]1CC[C@@]2(C)C(C[C@@H](OC(C)=O)[C@@]3(C)C4=CC(=O)O[C@@H](c5ccoc5)[C@]4(C)CCC23)C1(C)C (some centres undefined)
normalized growth: 0.985
//
compound: CC(=O)O[C@@H]1CC[C@@]2(C)C(C[C@@H](OC(C)=O)[C@@]3(C)C4=CC(=O)O[C@@H](c5ccoc5)[C@]4(C)CCC23)C1(C)C (some centres undefined)
normalized growth: 1
//
compound: CC(=O)Oc1ccc(O)cc1
normalized growth: 0.967
//
compound: O=C(NCO)c1cccnc1
normalized growth: 0.975

====

test: chemical genetic growth profiling, strain panel (AID 1159580);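 note: tested at 20 µM; growth read once vehicle control cultures reached saturation at 30 °C; 1 = growth at the plate median or of vehicle wells; lower values mean less growth of the strain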; conditions: S. cerevisiae deletion strains, growth OD, locus YPL241C, strain CIN2, hits give low values
The campaign covered roughly 5,500 compounds. About 2,000 (36%) were called active. Another 18% or so got no clear call; they are omitted. Some of the results follow.
Consider the following molecules and their measured normalized growth readings.

molecule: COC(=O)c1c(OC)cc2c(c1C)Oc1c(Cl)c(O)c(Cl)c(C)c1C(=O)O2
normalized growth: 0.913 (active)

molecule: CC(C)c1ccc2c(c1)CCC1C(C)(C(N)=O)CCCC21C (stereo not given)
normalized growth: 0.98 (inactive)

molecule: COc1c(Br)cc(/C(N)=N\OC(=O)c2c(-c3c(Cl)cccc3Cl)noc2C)cc1Br
normalized growth: 0.98 (inactive)

molecule: CSc1ncc(C#N)c2nc(-c3ccc(N(C)C)cc3)nn12
normalized growth: 1.01 (inactive)

molecule: CC(C)=CC1C(C(=O)O)C1(C)C (stereo not given)
normalized growth: 0.998 (inactive)

molecule: Cc1ccc(Sc2ccc([N+](=O)[O-])cc2/C=C2\SC(=S)NC2=O)cc1
normalized growth: 0.924 (inactive)

molecule: CC(C)CC(NC(=O)OCC1c2ccccc2-c2ccccc21)C(=O)O (stereo not given)
normalized growth: 0.993 (inactive)

molecule: CN(C)C1C(=O)C(C(N)=O)=C(O)C2(O)C(=O)C3=C(O)c4c(O)ccc(Cl)c4C(C)(O)C3CC12 (stereo not given)
normalized growth: 0.997 (inactive)

molecule: COc1cc(CC(C)N)c(OC)cc1I (stereo not given)
normalized growth: 0.991 (inactive)

molecule: CC(=O)Nc1ccc(S(=O)(=O)Nc2c(C)n(C)n(-c3ccccc3)c2=O)cc1
normalized growth: 0.987 (inactive)

molecule: CN(C)[C@@H]1C(=O)C(C(N)=O)=C(O)[C@@]2(O)C(=O)C3=C(O)c4c(O)ccc(Cl)c4[C@@](C)(O)[C@H]3C[C@@H]12
normalized growth: 0.997 (inactive)

molecule: COC(=O)C/C(N)=C(\C#N)C(=O)OC
normalized growth: 1.01 (inactive)

molecule: CC(=O)O[C@@H]1C=C[C@@]2(C)C(C[C@@H](OC(C)=O)[C@@]3(C)C4=CC(=O)O[C@@H](c5ccoc5)[C@]4(C)CCC23)C1(C)C (stereo not given in full)
normalized growth: 1.01 (inactive)

molecule: CC(=O)O[C@H]1CCC2(C)C3=C(CCC2C1(C)C)[C@@]1(C)CC[C@@H](C(C)CCC=C(C)C)[C@]1(C)CC3 (stereo not given in full)
normalized growth: 1.05 (inactive)

molecule: O=C1NC(O)=NC1(c1ccccc1)c1ccccc1
normalized growth: 1 (inactive)

molecule: CC(=O)Oc1ccc(O)cc1
normalized growth: 1.02 (inactive)

molecule: CC1=CC(=O)c2ccccc2C1=O
normalized growth: 0.0549 (active)

molecule: CC(=O)O[C@H]1CC[C@@]2(C)C(C[C@@H](OC(C)=O)[C@@]3(C)C4=CC(=O)O[C@@H](c5ccoc5)[C@]4(C)CCC23)C1(C)C (stereo not given in full)
normalized growth: 1 (inactive)

molecule: O=[N+]([O-])c1ccc(N2CCOCC2)cc1
normalized growth: 1.01 (inactive)

molecule: O=c1[nH]cnc2ccsc12
normalized growth: 1.02 (inactive)

molecule: C=C1C[C@]23C[C@@]1(O)CC[C@H]2[C@@]12C=C[C@H](O)[C@@](C)(C(=O)O1)[C@H]2[C@@H]3C(=O)O
normalized growth: 0.997 (inactive)

molecule: CC(=O)Oc1cccc(O)c1
normalized growth: 1.01 (inactive)

molecule: CC(C)CCCC(C)[C@H]1CCC2C3CC=C4CC(=O)CC[C@]4(C)C3CC[C@@]21C (stereo not given in full)
normalized growth: 0.995 (inactive)

molecule: Cn1c(CSc2ccccc2)n[nH]c1=S
normalized growth: 1.02 (inactive)

molecule: CN=C(NC#N)Nc1ccc(C2=NNC(=O)CC2C)cc1 (stereo not given)
normalized growth: 0.998 (inactive)

molecule: O=C1C(SCCO)=C(SCCO)C(=O)c2ccccc21
normalized growth: 0.996 (inactive)

molecule: O=C(O)c1cc(O)c2c(c1)[C@@H]([C@H]1c3cc(C(=O)O)cc(O)c3C(=O)c3c(O[C@H]4O[C@H](CO)[C@@H](O)[C@H](O)[C@H]4O)cccc31)c1cccc(O[C@H]3O[C@H](CO)[C@@H](O)[C@H](O)[C@H]3O)c1C2=O
normalized growth: 1.02 (inactive)

molecule: O=C1c2ccccc2C(=O)N1CN(CCSc1ccccc1)CN1C(=O)c2ccccc2C1=O
normalized growth: 0.964 (inactive)

molecule: CC(=O)Oc1ccc(/C=C/c2cc(OC(C)=O)cc(OC(C)=O)c2)cc1
normalized growth: 0.998 (inactive)

molecule: Cc1cc(=O)[nH]c(=S)[nH]1
normalized growth: 1.01 (inactive)

The measurements presented in this section are drawn from PubChem BioAssay AID1159580.
